Hello, the source for this data is patent US20250313556A1, in case you need it.

Target Or Test System: c-KIT (Homo sapiens, UniProt P10721)
Sequence (P10721 26-976): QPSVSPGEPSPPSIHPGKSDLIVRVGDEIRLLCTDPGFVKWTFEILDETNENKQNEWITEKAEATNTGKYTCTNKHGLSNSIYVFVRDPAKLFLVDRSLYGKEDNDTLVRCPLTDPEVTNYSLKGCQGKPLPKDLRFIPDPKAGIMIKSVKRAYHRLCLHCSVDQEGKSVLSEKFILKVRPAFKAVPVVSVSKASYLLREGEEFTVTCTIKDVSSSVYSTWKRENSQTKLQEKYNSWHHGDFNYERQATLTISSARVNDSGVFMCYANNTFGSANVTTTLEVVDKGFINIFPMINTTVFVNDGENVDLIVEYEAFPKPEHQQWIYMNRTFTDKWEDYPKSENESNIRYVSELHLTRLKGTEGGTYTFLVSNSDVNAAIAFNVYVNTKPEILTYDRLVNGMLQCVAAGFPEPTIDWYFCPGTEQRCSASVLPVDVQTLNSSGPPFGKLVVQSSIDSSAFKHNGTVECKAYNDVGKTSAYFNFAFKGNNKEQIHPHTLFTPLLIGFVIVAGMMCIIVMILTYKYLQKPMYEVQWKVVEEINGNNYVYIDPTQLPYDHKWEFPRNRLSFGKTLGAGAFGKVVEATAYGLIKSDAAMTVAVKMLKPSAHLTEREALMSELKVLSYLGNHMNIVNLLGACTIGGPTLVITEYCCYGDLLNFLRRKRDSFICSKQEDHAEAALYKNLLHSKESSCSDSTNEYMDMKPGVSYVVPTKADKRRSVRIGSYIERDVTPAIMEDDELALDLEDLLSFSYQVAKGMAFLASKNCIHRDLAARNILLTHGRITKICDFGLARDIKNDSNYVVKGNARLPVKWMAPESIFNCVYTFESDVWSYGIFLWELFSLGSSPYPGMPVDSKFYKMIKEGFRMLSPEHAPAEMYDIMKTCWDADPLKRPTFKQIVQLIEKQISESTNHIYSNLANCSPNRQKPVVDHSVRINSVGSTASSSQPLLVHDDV
Assay Text: c-KIT ADP-Glo biochemical assay
Experimental Conditions: class ranges
Outcome Measure: IC50

State recorded IC50 for all listed compounds.
1. Cc1c(F)cc(-c2noc(C3CC(F)(F)C3)n2)cc1NC(=O)c1cnc2ccc(N3CCNCC3)cn12
2. COC(=O)N1CC(c2nc(-c3cc(F)c(C)c(NC(=O)c4cnc5ccc(C)cn45)c3)no2)C1

1: 0.1 to 1 µM; 2: 0.1 to 1 µM

State recorded IC50 for all listed compounds.
1. COC(=O)N1CC(c2nc(-c3cc(F)c(C)c(NC(=O)c4cnc5cc(C(N)=O)ccn45)c3)no2)C1
2. Cc1c(F)cc(-c2noc([C@H]3C[C@@H]3F)n2)cc1NC(=O)c1cnc2cc(N3CCOCC3)ccn12
3. CCOC(=O)N1CC(c2nc(-c3cc(F)c(C)c(NC(=O)c4cnc5ccccn45)c3)no2)C1
4. Cc1c(F)cc(-c2noc([C@H]3C[C@@H]3F)n2)cc1NC(=O)c1cnc2ccc(N3CCOCC3)cn12 (racemic)
5. COC(=O)N1CC(c2nc(-c3cc(F)c(C)c(NC(=O)c4cnc5cc(OC)ccn45)c3)no2)C1
6. COC(=O)N1CC[C@@H](c2nc(-c3cc(F)c(C)c(NC(=O)c4cnc5ccccn45)c3F)no2)C1
7. CNC(=O)N1CC(c2nc(-c3cc(F)c(C)c(NC(=O)c4cnc5ccccn45)c3)no2)C1

1. ≤ 0.1 µM
2. 0.1 to 1 µM
3. 0.1 to 1 µM
4. 1 to 20 µM
5. ≤ 0.1 µM
6. 1 to 20 µM
7. 1 to 20 µM

----------
Target Or Test System: c-KIT (Homo sapiens)
Assay Text: c-KIT ADP-Glo biochemical assay
Experimental Conditions: class ranges
pIC50: −log10 of the molar value.
Outcome Measure: pIC50

// solved cases for pIC50 follow
Molecule: Cc1c(F)cc(-c2noc(C3CC(F)(F)C3)n2)cc1NC(=O)c1cnc2cc(N3CCOCC3)ccn12 [Compound C013]
Endpoint Value: 6.00 to 7.00

Molecule: COC(=O)N1CC(c2nc(-c3cc(F)c(C)c(NC(=O)c4cnc5ccc(N6CCOCC6)cn45)c3)no2)C1 [Compound C009]
Endpoint Value: 6.00 to 7.00

Molecule: COC(=O)N1CCC[C@@H](c2nc(-c3cc(F)c(C)c(NC(=O)c4cnc5ccccn45)c3F)no2)C1 [Compound C054]
Endpoint Value: 6.00 to 7.00

Molecule: COC(=O)N1CC(c2ncc(-c3cc(F)c(C)c(NC(=O)c4cnc5ccccn45)c3)o2)C1 [Compound C046]
Endpoint Value: 4.70 to 6.00

Molecule: CC(=O)N1CCN(c2ccc3ncc(C(=O)Nc4cc(-c5noc([C@H]6C[C@@H]6F)n5)cc(F)c4C)n3c2)CC1 (racemic) [Compound C039]
Endpoint Value: ≥ 7.00

Molecule: COC(=O)N1CC(c2nc(-c3cc(F)c(C)c(NC(=O)c4cnc5ccc(OC)cn45)c3)no2)C1 [Compound C027]
Endpoint Value: 6.00 to 7.00

Measured pIC50 (c-KIT (Homo sapiens)), entry COC(=O)N1CC(c2nc(-c3cc(F)c(C)c(NC(=O)c4cnn5ccccc45)c3)no2)C1 [Compound C006] : 6.00 to 7.00

----------
Target Or Test System: c-KIT (Homo sapiens)
Assay Text: c-KIT ADP-Glo biochemical assay
Experimental Conditions: class ranges
Outcome Measure: IC50

// solved cases for IC50 follow
Compound: Cc1c(F)cc(-c2noc([C@H]3C[C@H]3F)n2)cc1NC(=O)c1cnn2ccccc12 (racemic)
Target Or Test System: c-KIT (Homo sapiens)
IC50: 100 to 1000 nM

Compound: COC(=O)N1CC(c2cnc(-c3cc(F)c(C)c(NC(=O)c4cnc5ccccn45)c3)o2)C1
Target Or Test System: c-KIT (Homo sapiens)
IC50: 1000 to 20000 nM

Compound: Cc1c(F)cc(-c2noc(C3CN(C(=O)OCCN)C3)n2)cc1NC(=O)c1cnc2ccccn12
Target Or Test System: c-KIT (Homo sapiens)
IC50: ≤ 100 nM

Compound: Cc1c(F)cc(-c2noc(C3CC(F)(F)C3)n2)cc1NC(=O)c1cnc2ccc(N3CCN(C)CC3)cn12
Target Or Test System: c-KIT (Homo sapiens)
IC50: 100 to 1000 nM

Compound: COC(=O)N1CC(c2nc(-c3cc(F)c(C)c(NC(=O)c4cnc5ccc(N6CCN(C(C)=O)CC6)cn45)c3)no2)C1
Target Or Test System: c-KIT (Homo sapiens)
IC50: ≤ 100 nM

Compound: COC(=O)N1CC(c2nc(-c3cc(F)c(C)c(NC(=O)c4cnc5cc(N6CCOCC6)ccn45)c3)no2)C1
Target Or Test System: c-KIT (Homo sapiens)
IC50: ≤ 100 nM

// next entry
Form field IC50, entry COC(=O)N1CC(c2nc(-c3cc(F)c(C)c(NC(=O)c4cnc5ccc(N6CCN(C)CC6)cn45)c3)no2)C1 : 100 to 1000 nM

----------
Target Or Test System: c-KIT (Homo sapiens)
Assay Text: c-KIT ADP-Glo biochemical assay
Experimental Conditions: class ranges
Outcome Measure: IC50

Chem Smiles: COC(=O)N1CC(c2nc(-c3cc(F)c(C)c(NC(=O)c4cnc5cc(N6CCNCC6)ccn45)c3)no2)C1
IC50: 100 to 1000 nM
--
Chem Smiles: COC(=O)N1CC(c2nc(-c3cc(F)c(C)c(NC(=O)c4cnc5cc(Cl)ccn45)c3)no2)C1
IC50: 100 to 1000 nM
--
Chem Smiles: COC(=O)N1CC(c2nc(-c3cc(F)c(C)c(NC(=O)c4cnc5cc(F)ccn45)c3)no2)C1
IC50: 100 to 1000 nM
--
Chem Smiles: Cc1c(F)cc(-c2noc(C3CC(F)(F)C3)n2)cc1NC(=O)c1cnc2cc(N3CCN(C)CC3)ccn12
IC50: 100 to 1000 nM

State recorded IC50 for all listed compounds.
1. COC(=O)N1CC(c2nnc(-c3cc(F)c(C)c(NC(=O)c4cnc5ccccn45)c3)o2)C1
2. COC(=O)N1CCC[C@H](c2nc(-c3cc(F)c(C)c(NC(=O)c4cnc5ccccn45)c3F)no2)C1
3. COC(=O)N1CC(c2nc(-c3cc(F)c(C)c(NC(=O)c4cnc5ccccn45)c3)no2)C1

1000 to 20000 nM
100 to 1000 nM
≤ 100 nM

----------
Target Or Test System: c-KIT (Homo sapiens)
Assay Text: c-KIT ADP-Glo biochemical assay
Experimental Conditions: class ranges
pIC50: −log10 of the molar value.
Outcome Measure: pIC50

Compound: COC(=O)N1CC(c2noc(-c3cc(F)c(C)c(NC(=O)c4cnc5ccccn45)c3)n2)C1
Target Or Test System: c-KIT (Homo sapiens)
Endpoint Value: 6.00 to 7.00

State recorded pIC50 for all listed compounds.
1. Cc1c(F)cc(-c2noc(C3CC(F)(F)C3)n2)cc1NC(=O)c1cnc2ccccn12
2. Cc1c(F)cc(-c2noc([C@H]3C[C@@H]3F)n2)cc1NC(=O)c1cnc2ccccn12 (racemic)
3. Cc1c(F)cc(-c2noc([C@H]3C[C@@H]3F)n2)cc1NC(=O)c1cnc2cc(N3CCNCC3)ccn12 (racemic)
4. COC(=O)N1CCC[C@@H](c2nc(-c3cc(F)c(C)c(NC(=O)c4cnc5ccccn45)c3)no2)C1
5. Cc1c(F)cc(-c2noc(C3CC(F)(F)C3)n2)cc1NC(=O)c1cnn2ccccc12
6. Cc1c(F)cc(-c2noc(C3CC(F)(F)C3)n2)cc1NC(=O)c1cnc2ccc(N3CCOCC3)cn12

4.70 to 6.00
4.70 to 6.00
4.70 to 6.00
6.00 to 7.00
4.70 to 6.00
6.00 to 7.00

----------
Field: IC50. Provide a value for each of the compounds that follow.
Target Or Test System: UniProtKB P10721
Assay Text: c-KIT ADP-Glo biochemical assay
Experimental Conditions: class ranges

// solved cases for IC50 follow
Compound: COC(=O)N1CC(c2nnc(-c3cc(F)c(C)c(NC(=O)c4cnc5ccccn45)c3)[nH]2)C1
Target Or Test System: UniProtKB P10721
Endpoint Value: 100 to 1000 nM

Compound: COC(=O)N1CC(c2nc(-c3cc(F)c(C)c(NC(=O)c4cnc5cc(C)ccn45)c3)no2)C1
Target Or Test System: UniProtKB P10721
Endpoint Value: 100 to 1000 nM

Compound: COC(=O)N1CC(c2nc(-c3cc(F)c(C)c(NC(=O)c4cnc5ccccn45)c3)co2)C1
Target Or Test System: UniProtKB P10721
Endpoint Value: 100 to 1000 nM

Compound: Cc1c(F)cc(-c2noc([C@H]3C[C@@H]3F)n2)cc1NC(=O)c1cnc2ccc(N3CCNCC3)cn12 (racemic)
Target Or Test System: UniProtKB P10721
Endpoint Value: 100 to 1000 nM

Compound: COC(=O)N1CC(c2coc(-c3cc(F)c(C)c(NC(=O)c4cnc5ccccn45)c3)n2)C1
Target Or Test System: UniProtKB P10721
Endpoint Value: 100 to 1000 nM

State recorded IC50 for all listed compounds.
1. COCCOC(=O)N1CC(c2nc(-c3cc(F)c(C)c(NC(=O)c4cnc5ccccn45)c3)no2)C1
2. Cc1c(F)cc(-c2noc([C@H]3C[C@@H]3F)n2)cc1NC(=O)c1cnc2ccc(N3CCN(C)CC3)cn12 (racemic)
3. COC(=O)N1CC[C@H](c2nc(-c3cc(F)c(C)c(NC(=O)c4cnc5ccccn45)c3F)no2)C1

1: 100 to 1000 nM; 2: 100 to 1000 nM; 3: 100 to 1000 nM

State recorded IC50 for all listed compounds.
1. COC(=O)N1CC(c2nc(-c3cc(F)c(C)c(NC(=O)c4cnc5cc(C#N)ccn45)c3)no2)C1
2. CC(=O)N1CCN(c2ccn3c(C(=O)Nc4cc(-c5noc(C6CC(F)(F)C6)n5)cc(F)c4C)cnc3c2)CC1
3. COC(=O)N1CC(c2nc(-c3cc(F)c(C)c(NC(=O)c4cnc5ccccn45)c3F)no2)C1
4. Cc1c(F)cc(-c2noc([C@@H]3C[C@H]3F)n2)cc1NC(=O)c1cnc2cc(N3CCOCC3)ccn12

["1000 to 20000 nM", "100 to 1000 nM", "≤ 100 nM", "100 to 1000 nM"]

State recorded IC50 for all listed compounds.
1. COC(=O)N1CC(c2nc(-c3cc(F)c(C)c(NC(=O)c4cnc5ccc(N6CCNCC6)cn45)c3)no2)C1
2. COC(=O)N1CC(c2nc(-c3cc(F)c(C)c(NC(=O)c4cnc5ccc(F)cn45)c3)no2)C1
3. COC(=O)N1CC(c2nc(-c3cc(F)c(C)c(NC(=O)c4cnc5ccc(C(N)=O)cn45)c3)no2)C1

["1000 to 20000 nM", "100 to 1000 nM", "≤ 100 nM"]

State recorded IC50 for all listed compounds.
1. CC(=O)N1CCN(c2ccc3ncc(C(=O)Nc4cc(-c5noc(C6CC(F)(F)C6)n5)cc(F)c4C)n3c2)CC1
2. COC(=O)N1CC(c2nc(-c3cc(F)c(C)c(NC(=O)c4cnc5ccc(Cl)cn45)c3)no2)C1
3. Cc1c(F)cc(-c2noc(C3CN(C(=O)OC4CC4)C3)n2)cc1NC(=O)c1cnc2ccccn12

1: ≤ 100 nM; 2: 100 to 1000 nM; 3: 1000 to 20000 nM

Form field IC50, entry Cc1c(F)cc(-c2noc(C3CC(F)(F)C3)n2)cc1NC(=O)c1cnc2cc(N3CCNCC3)ccn12 : 100 to 1000 nM
